Subject Of Test: Rac GTPase-activating protein 1 (Homo sapiens) (UniProt Q9H0H5)
Sequence (Q9H0H5 whole entry, looked up): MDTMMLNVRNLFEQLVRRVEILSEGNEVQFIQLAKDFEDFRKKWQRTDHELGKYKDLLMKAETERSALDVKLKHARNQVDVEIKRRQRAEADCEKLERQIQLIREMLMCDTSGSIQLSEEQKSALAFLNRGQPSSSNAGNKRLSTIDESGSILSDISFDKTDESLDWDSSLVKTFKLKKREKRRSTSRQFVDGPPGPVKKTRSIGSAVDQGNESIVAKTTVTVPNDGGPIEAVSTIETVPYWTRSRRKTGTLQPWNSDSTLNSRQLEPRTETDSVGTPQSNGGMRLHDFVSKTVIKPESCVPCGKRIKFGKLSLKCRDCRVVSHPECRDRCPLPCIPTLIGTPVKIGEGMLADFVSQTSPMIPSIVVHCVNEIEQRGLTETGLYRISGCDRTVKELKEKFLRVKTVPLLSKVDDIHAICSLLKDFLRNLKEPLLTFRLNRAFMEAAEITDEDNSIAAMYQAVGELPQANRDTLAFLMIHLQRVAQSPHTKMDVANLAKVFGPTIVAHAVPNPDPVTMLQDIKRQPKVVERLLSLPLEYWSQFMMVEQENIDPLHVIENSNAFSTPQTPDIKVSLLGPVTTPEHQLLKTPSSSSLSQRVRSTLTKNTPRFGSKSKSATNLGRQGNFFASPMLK
Experiment Notes: blockers of MgcRacGAP-driven Rac1 GTP hydrolysis – biochemical, ADP Hunter fluorescence, primary and confirmatory, confirmation (AID 624330);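 further: fluorescence reports GDP produced by GAP-driven GTP hydrolysis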
Settings: MgcRacGAP-stimulated Rac1 GTP hydrolysis, at 30 µM, active compounds read high, GST-tagged Rac1 F28L mutant substrate
Out of some 340,000 compounds screened, about 2,100 (0.62%) were called active. Not all results are given here. Measured potencies and affinities stand elsewhere.
Each entry below carries its recorded inhibition.
Please reply with the bare figure in % and do not write the unit itself.

Guide cases for inhibition, answers given:
1) O=C(NN=Cc1ccc(F)cc1)C1CC1
6.86
2) O=[N+]([O-])c1ccc(C=NNC(=S)NN=Cc2ccc([N+](=O)[O-])cc2)cc1
-0.77
3) N#C/C(=C/c1ccc(O)cc1)C(=O)NCc1ccc(Cl)cc1
3.42

We next turn to a different compound, shown below.
Indicate the recorded inhibition value for this compound: `C=CCNCCCCOc1c(Cl)cc(C)cc1Br` 29.7

* * *

Subject Of Test: Rac GTPase-activating protein 1 (Homo sapiens) (UniProt Q9H0H5)
Experiment Notes: blockers of MgcRacGAP-driven Rac1 GTP hydrolysis – biochemical, ADP Hunter fluorescence, primary and confirmatory, confirmation (AID 624330);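 further: fluorescence reports GDP produced by GAP-driven GTP hydrolysis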
Settings: MgcRacGAP-stimulated Rac1 GTP hydrolysis, at 30 µM, active compounds read high, GST-tagged Rac1 F28L mutant substrate
The whole screen tested about 340,000 compounds, of which about 2,100 (0.62%) were called active. These entries were drawn from the full list. Potency and affinity values are given separately.
Give 1 (yes) when the value for inhibition is at least 20%. Give 0 (no) when it is less.

1. COc1ccc2[nH]c3c(c2c1)CNCC3
0 (no)
2. Cc1ccccc1N=Cc1cccc(O)c1O
0 (no)

Assess whether reported inhibition for `Cc1cccc(N=Cc2ccccc2O)c1C` sits at 20% or higher. 0 (no)

Item CC(=O)C1=C(O)C(=O)N(c2ccc(F)cc2)C1c1ccc(C)cc1 (stereo not given) with inhibition of 20% or above? 0 (no)

Answer whether inhibition of `c1cncc(-c2nc3cc4ccccc4cc3[nH]2)c1` is greater than or equal to 20%. 1 (yes)

* * *

Subject Of Test: Rac GTPase-activating protein 1 (Homo sapiens)
Experiment Notes: blockers of MgcRacGAP-driven Rac1 GTP hydrolysis – biochemical, ADP Hunter fluorescence, primary and confirmatory, confirmation (AID 624330);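 further: fluorescence reports GDP produced by GAP-driven GTP hydrolysis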
Settings: MgcRacGAP-stimulated Rac1 GTP hydrolysis, at 30 µM, active compounds read high, GST-tagged Rac1 F28L mutant substrate
Among all 340,000 compounds or so, about 2,100 (0.62%) were called active. Not all results are given here. Measured potencies and affinities stand elsewhere.
Reported inhibition by item:
Express the result in % but write the number alone.

1) COc1ccc(/C=C/C(=O)Oc2ccc(/C=N/NC(=O)c3ccccc3)cc2)cc1OC
3.85
2) CCOc1cc(/C=N/Nc2nncc(-c3ccccc3)n2)ccc1O
13.6

Attention now shifts to the item below.
Hello, please tell me recorded inhibition for this one: `CCOc1ccc2nc(NC(=O)CN3CCN(CC)CC3)sc2c1` 5.24

* * *

The following compounds are shown together with reported inhibition values.
Subject Of Test: Rac GTPase-activating protein 1 (Homo sapiens) (UniProt Q9H0H5)
Experiment Notes: blockers of MgcRacGAP-driven Rac1 GTP hydrolysis – biochemical, ADP Hunter fluorescence, primary and confirmatory, confirmation (AID 624330);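 further: fluorescence reports GDP produced by GAP-driven GTP hydrolysis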
Settings: MgcRacGAP-stimulated Rac1 GTP hydrolysis, at 30 µM, active compounds read high, GST-tagged Rac1 F28L mutant substrate
In all, about 340,000 compounds went through this assay and about 2,100 (0.62%) were called active. The list is a sample of the results. Entries with a potency or affinity are not part of this list.
All answers are understood in %, so give the number only.

1) Cc1ccc(C(=O)COC(=O)c2cnccn2)cc1
-2.3
2) O=C(COC(=O)/C=C/c1cccc(F)c1)Nc1ccccc1
-19.5
3) CCCn1c(SCC(=O)N(CC)c2c(N)n(Cc3ccccc3)c(=O)[nH]c2=O)nnc1-c1ccncc1
-0.81

Identify measured inhibition corresponding to `Cc1cccc(NC(=O)CN2C(=O)N/C(=C/c3cc(C)n(-c4cccnc4)c3C)C2=O)c1` -10.6

Answer with reported inhibition of `COc1cccc(/C=C/C(=O)NCc2cn3cc(Cl)ccc3n2)c1` 2.4

Give the reported value of inhibition for this record: CC(C)(C)C1CCC(=O)N(CCOc2ccccc2)CC1 (centres undefined) 5.11

Could you please provide reported inhibition for CC(=O)NCC1CCCN(Cc2cn(-c3ccccc3)nc2-c2ccc3c(c2)OCO3)C1 (centres undefined) ? Thanks! -2.78

Write down inhibition measured for item Cc1cc(F)ccc1S(=O)(=O)N1CCCOC1CNC(=O)C(=O)NCC(C)C (centres undefined) 3.59

Given the compound OCCC1CN(Cc2ccncc2)CCN1C1CCCC1 (centres undefined) , write its reported inhibition. 5.79

Let me know recorded inhibition for `CC(=O)Oc1ccc(C(=O)Cc2ccc3ccccc3n2)c(O)c1C` , thanks. -0.13

Check the records and state inhibition for `CC(C)[C@H](NC(=O)c1ccco1)C(=O)Nc1ccc(N2CCCCCC2)cc1` 9.75

Give inhibition for the following compound: `Nc1ccc2c(c1)C(=O)c1cc(Cl)c(Cl)cc1-2` 7.4

Give the value of inhibition reported for the following: `CCOc1ccccc1N1CCN(C(=O)CC(C)(C)C)CC1` -0.74

Complete the entry with inhibition for `CCCN(CC(=O)Nc1ccccc1C)C(=O)Cc1cccs1` 9.22

Could you please provide reported inhibition for `O=C(c1ccco1)N1CCc2ccccc21` ? Thanks! 3.81

Name the recorded inhibition of the compound listed here: `O=C(NN=Cc1ccccc1C(=O)O)c1ccc(NS(=O)(=O)c2cccs2)cc1` 5.61

Please look at this compound and report its inhibition: `CCOC(=O)CNC(=O)Cn1cnc2c(nnn2-c2ccc(C)cc2)c1=O` 1.26

Supply recorded inhibition for `COc1cccc(NC(=O)CN(C)C(=O)CSc2nc3ccccc3s2)c1` here. -3.45

Please list inhibition recorded for the compound `Cc1cc(C)cc(NC(=O)c2cc3c(=O)n4ccccc4nc3s2)c1` 7.35

Give a short answer stating reported inhibition for `O=C(/C=C/c1cccc(Cl)c1)OCc1cn2cc(Cl)ccc2n1` . 11.7

Give inhibition for the following compound: `CCOC(=O)Cc1csc(NC(=O)c2c(C)noc2C)n1` 7.91

Given the compound `O=C(Nn1cnc2ccccc2c1=O)c1ccc(Cl)c([N+](=O)[O-])c1` , write its reported inhibition. 9.36

Name the recorded inhibition of the compound listed here: `Nc1cc2c(cc1Cl)-c1ccc(Cl)cc1C2=O` 3.85

Return reported inhibition. Input compound: `Cc1c(O)ccc(/C(Cc2ccc3ccccc3n2)=N\N)c1O` 14.8

Annotate the compound `COc1ccc(-c2csc3nc(C)n(-n4cccc4)c(=O)c23)cc1OC` with its measured inhibition. 2.59

* * *

Subject Of Test: Rac GTPase-activating protein 1 (Homo sapiens) (UniProt Q9H0H5)
Experiment Notes: blockers of MgcRacGAP-driven Rac1 GTP hydrolysis – biochemical, ADP Hunter fluorescence, primary and confirmatory, confirmation (AID 624330);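 further: fluorescence reports GDP produced by GAP-driven GTP hydrolysis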
Settings: MgcRacGAP-stimulated Rac1 GTP hydrolysis, at 30 µM, active compounds read high, GST-tagged Rac1 F28L mutant substrate
The whole screen tested about 340,000 compounds, of which about 2,100 (0.62%) were called active. Not all results are given here. Potency and affinity values are given separately.
Quantity Kind: inhibition (%)
# value in %; strip the unit string

Sample answers from the record:
1) O=C(COC(=O)c1ccc(O)cc1)Nc1cccc(S(=O)(=O)N2CCCCC2)c1
5.81
2) O=C(Nc1cccc(F)c1)Nc1ccnn1C1CCN(C(=O)c2ccccn2)CC1
4.39
3) CCOc1ccc(NC(=O)c2ccc(F)c(S(=O)(=O)N3CCCC3)c2)cc1
10.8

Name the recorded inhibition of `CCOC(CCNC(=O)c1cn(CC(C)C)c(=O)c2c1c1ccccc1n2C)OCC` , assay system Rac GTPase-activating protein 1 (Homo sapiens) (UniProt Q9H0H5). 17.2

Tell me its inhibition on Rac GTPase-activating protein 1 (Homo sapiens) (UniProt Q9H0H5): CC(C)c1ccccc1OCC(O)CN(CC(O)COc1cccc2ccccc12)C(C)C (configuration not stated) 4.64

Provide measured inhibition on Rac GTPase-activating protein 1 (Homo sapiens) (UniProt Q9H0H5) for CC(C(=O)Nc1ccccc1)N1CCN(c2ccccn2)CC1 (configuration not stated) please. 7.75

* * *

Subject Of Test: Rac GTPase-activating protein 1 (Homo sapiens)
Experiment Notes: blockers of MgcRacGAP-driven Rac1 GTP hydrolysis – biochemical, ADP Hunter fluorescence, primary and confirmatory, confirmation (AID 624330);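 further: fluorescence reports GDP produced by GAP-driven GTP hydrolysis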
Settings: MgcRacGAP-stimulated Rac1 GTP hydrolysis, at 30 µM, active compounds read high, GST-tagged Rac1 F28L mutant substrate
About 2,100 (0.62%) of roughly 340,000 compounds were called active. Not all results are given here. Potency and affinity values are given separately.
Attribute: inhibition
# number only, unit % dropped from output

1) Oc1c(C=Nc2ccc(Cl)cn2)sc2ccccc12
8.33

Report measured inhibition; entry is `COc1cccc(Oc2cnc(N)nc2-c2ccc(OC)cc2O)c1` 6.49

Let me know recorded inhibition for `C=CCNC(=S)Nc1ccc(Cl)cc1` , thanks. 3.44

Quick one: give measured inhibition for `CCOc1ccc(-c2nc(N)ncc2Oc2ccc(OC)cc2)c(O)c1` 1.9

Identify measured inhibition associated with `COc1cccc(Oc2cncnc2-c2ccc(OC)cc2O)c1` 8.42

Could you please provide reported inhibition for `CC(=O)Nc1ccc(NC(=O)CSc2nnc(-c3cccs3)n2C)cc1` ? Thanks! 5.9

Provide one value: measured inhibition of `CN(C(=O)CSc1nnc(-c2ccccc2F)n1N)C1CCCCC1` 4.13

Quick one: give measured inhibition for `COc1ccc(S(=O)(=O)N2CCOCC2)cc1NC(=O)Cc1ccccc1Cl` 5.39

Hello, please tell me recorded inhibition for this one: CC(=O)NC(Cc1ccccc1)C(C)=O (stereo not given) 8.26

Fill in reported inhibition for this entry: CCCCCC(=O)NC(NC(=S)NC1CCS(=O)(=O)C1)C(Cl)(Cl)Cl (stereo not given) 8.9

Identify measured inhibition corresponding to `O=C(Nc1ccccc1)NC1(C(=O)N2CCC(O)CC2)CCCCC1` 5.54

Quote inhibition reported for `Cc1cc(C)nc(NN=C(c2ccccc2)c2ccccc2)n1` please. 7.14

Identify inhibition associated with the compound `O=[N+]([O-])c1ccc(O)c(N=Cc2sc3ccccc3c2O)c1` 27.9

Return the recorded inhibition value; entry: CCOC(=O)C1CCCN(C(=O)C2CCN(C(=O)Nc3ccccc3)CC2)C1 (stereo not given) 4.05

Let me know recorded inhibition for `O=C(Nc1cccc(-c2cccc(F)c2)c1)C1CCN(Cc2ccco2)CC1` , thanks. 7.74

Find the measured inhibition of `C=C(C)COc1ccc(-c2nc(N)ncc2Oc2ccc(OC)cc2)c(O)c1` and report it. -7.13

Tell me measured inhibition for `O=C1C=CC(=O)C(CNc2ccc(C(=O)OCc3ccccc3)cc2)=C1` please. 19.7

For O=C(O)C1CSC(c2ccncc2)N1 (stereo not given) , write its inhibition. 8.95

Identify inhibition associated with the compound `C=C(C)COc1ccc(-c2nc(N)ncc2Oc2ccccc2OCC)c(O)c1` 10.4

Please report the measured inhibition for `CCOc1ccc(-c2[nH]ncc2Oc2ccccc2OCC)c(O)c1` 6.69
